Assembled from different publications: pIC50 for Oxytocin receptor (Homo sapiens, UniProt P30559).
Sequence (P30559 whole entry): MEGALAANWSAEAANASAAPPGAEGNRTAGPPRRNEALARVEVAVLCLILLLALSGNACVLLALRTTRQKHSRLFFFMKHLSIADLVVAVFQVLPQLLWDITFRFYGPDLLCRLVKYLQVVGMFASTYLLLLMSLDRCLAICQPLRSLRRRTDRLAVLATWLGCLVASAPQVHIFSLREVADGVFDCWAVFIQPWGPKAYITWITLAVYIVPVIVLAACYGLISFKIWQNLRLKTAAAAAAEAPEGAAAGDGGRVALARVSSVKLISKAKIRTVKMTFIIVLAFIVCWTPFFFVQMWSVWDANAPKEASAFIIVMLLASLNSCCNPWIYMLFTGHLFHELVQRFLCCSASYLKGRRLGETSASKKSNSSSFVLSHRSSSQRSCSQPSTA
Recall that pIC50 is obtained by taking minus log10 of the concentration measured in molar.

Sample answers from the record:
CN1CCN(C(=O)c2ccc3n2Cc2ccccc2N(C(=O)c2ccc(C4CCCCC4)cc2)C3)CC1; 7.74
CN(C)C=NNC(=O)c1ccc2n1Cc1ccccc1N(C(=O)c1ccc(C3CCCCC3)cc1)C2; 7.12
CC(=O)NNC(=O)c1ccc2n1Cc1ccccc1N(C(=O)c1ccc(C3CCCCC3)cc1)C2; 7.28
O=C(c1ccc2n1Cc1ccccc1N(C(=O)c1ccc(C3CCCCC3)cc1)C2)N1CCC(N2CCCC2)CC1; 7.88
CC1CCCC=C1c1ccc(C(=O)N2Cc3cccn3Cc3ccccc32)cc1 (stereo not drawn); 7.66
COc1cccc(-c2ccc(C(=O)N3Cc4ccc(C(=O)N5CC[C@@H](N(C)C)C5)n4Cc4ccccc43)cc2C)c1; 8.10
Cc1cc(C(=O)N2Cc3ccc(C(=O)N4CCCN(C)CC4)n3Cc3ccccc32)ccc1-c1ccccc1C(F)(F)F; 7.78
COc1ccccc1-c1ccc(C(=O)N2Cc3ccc(C(=O)N4CCN(CCN(C)C)CC4)n3Cc3ccccc32)cc1C; 8.42

Request: Please report pIC50 for the following compound: COC(=O)[C@H](CO)NC(=O)c1ccc2n1Cc1ccccc1N(C(=O)c1ccc(C3=CCCCC3)c(C)c1)C2
Result: 7.12

Request: Give the measured pIC50 for COc1cc(C(=O)N2Cc3cccn3Cc3ccccc32)ccc1-n1c(C)ccc1C
Result: 7.74

Request: Write down pIC50 measured for item COc1cc(C(=O)N2Cc3ccc(C(=O)N(C)CC(O)CO)n3Cc3ccccc32)ccc1-c1ccccc1C(F)(F)F (stereo not drawn)
Result: 8.76

Request: Output pIC50 of COc1ccccc1-c1ccc(C(=O)N2Cc3ccc(C(=O)N(C)C[C@H](O)[C@@H](O)[C@H](O)[C@H](O)CO)n3Cc3ccccc32)cc1C
Result: 8.99
